experimental.system: T1, sEGFR-MMB (dimeric sEGFR mimetibody) (human)
T1 construct: Disulfide linked homodimer, expressed in 293E cells; also called sEGFR-Fc
T1 sequence (chain, as listed by the source limits assumed): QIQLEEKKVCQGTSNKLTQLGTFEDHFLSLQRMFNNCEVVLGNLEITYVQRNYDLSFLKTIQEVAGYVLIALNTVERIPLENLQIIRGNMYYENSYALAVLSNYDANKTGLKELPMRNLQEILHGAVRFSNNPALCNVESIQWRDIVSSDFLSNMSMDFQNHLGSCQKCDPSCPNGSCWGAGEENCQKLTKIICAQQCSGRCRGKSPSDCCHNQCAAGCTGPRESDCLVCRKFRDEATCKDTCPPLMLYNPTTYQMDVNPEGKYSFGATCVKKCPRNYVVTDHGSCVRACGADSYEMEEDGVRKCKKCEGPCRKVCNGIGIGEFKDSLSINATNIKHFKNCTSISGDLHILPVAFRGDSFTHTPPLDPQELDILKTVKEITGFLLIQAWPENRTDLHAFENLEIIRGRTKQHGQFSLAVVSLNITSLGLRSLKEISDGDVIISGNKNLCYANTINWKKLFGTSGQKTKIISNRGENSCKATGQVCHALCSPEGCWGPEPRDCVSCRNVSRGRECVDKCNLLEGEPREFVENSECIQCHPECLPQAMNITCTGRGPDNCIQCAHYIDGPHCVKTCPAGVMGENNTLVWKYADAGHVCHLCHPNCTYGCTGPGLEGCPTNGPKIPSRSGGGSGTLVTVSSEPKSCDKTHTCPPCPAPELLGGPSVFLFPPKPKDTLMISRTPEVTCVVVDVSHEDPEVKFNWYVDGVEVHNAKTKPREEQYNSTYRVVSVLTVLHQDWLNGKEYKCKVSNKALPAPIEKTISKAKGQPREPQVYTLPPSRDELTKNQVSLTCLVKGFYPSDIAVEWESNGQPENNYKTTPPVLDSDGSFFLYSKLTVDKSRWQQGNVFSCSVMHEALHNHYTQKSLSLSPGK
test.protocol: phage ELISA on coated sEGFR-MMB, chemiluminescence (background typically <200 units)
Hi! Just check whether ELISA signal is below 7000 units. Below gives T, equal or above gives F.

These recorded examples may help you get a feel for the data.
GGGDSCCSFLTDGTVVCSLGGGSGGSGG (pIX phagemid display; not shown: M13 phage coat protein pIX (MSVL...)) [SEQ ID NO: 45 (S20 hit, pIX phage)] :: F
GGGSVCVGTAFPGWMVCGPGGGSGGSGG (pIX phagemid display; not shown: M13 phage coat protein pIX (MSVL...)) [SEQ ID NO: 47 (S20 hit, pIX phage)] :: T
GGGYICTPSDIDSWYICYLGGGSGGSGG (pIX phagemid display; not shown: M13 phage coat protein pIX (MSVL...)) [SEQ ID NO: 46 (S20 hit, pIX phage)] :: T
GGGWMCFLEGYGASLMCQCGGGSGGSGG (pIX phagemid display; not shown: M13 phage coat protein pIX (MSVL...)) [SEQ ID NO: 44 (S20 hit, pIX phage)] :: T
GGGPTCDSATRRVLTICADGGGSGGSGG (pIX phagemid display; not shown: M13 phage coat protein pIX (MSVL...)) [SEQ ID NO: 43 (S20 hit, pIX phage)] :: T

Query: Please check: ELISA signal for GGGLLCATTSFRDWFVCFTGGGSGGSGG (pIX phagemid display; not shown: M13 phage coat protein pIX (MSVL...)) [SEQ ID NO: 49 (S20 hit, pIX phage)] , strictly under 7000 units or not?
Reply: T
